- experimental-system: T1, human CD147 protein (adsorbed to ELISA plates) (human, UniProt P35613-2 22-205, limits assumed)
- T1 construct: also called human CD147 polypeptide; Basigin
- T1 sequence (looked up): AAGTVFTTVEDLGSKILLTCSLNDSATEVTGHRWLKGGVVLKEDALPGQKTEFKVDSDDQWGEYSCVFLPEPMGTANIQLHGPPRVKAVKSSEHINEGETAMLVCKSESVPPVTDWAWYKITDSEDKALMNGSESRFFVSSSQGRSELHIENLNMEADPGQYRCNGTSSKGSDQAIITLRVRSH
- assay-summary: ELISA, human CD147 protein adsorbed to plate, intact activatable antibody; apparent KD
parameter-measured: Kd (nM)

[[record]]
binder = "anti-human CD147 activatable antibody hu 3A11 Hc1/Lc1-253-3001 (antibody, also called hu 3A11-253-3001) VH: EVQLVESGGGLVQPGGSLRLSCAASGFTFSNYWMDWVRQAPGKGLEWVGEIRLKSYNYATHYAASVKGRFTISRDDSKNSVYLQMNSLKTEDTAVYYCTAAGTDYWGQGTLVTVSS VL: VHGPCHWSVECLSNVGGGSSGGSAVGLLAPPGGLSGRSDNHGGSDIQMTQSPSSLSASVGDRVTITCRASQSVRTDVGWYQQKPGKAPKLLIYYSSNRYTGVPSRFSGSGSGTDFTLTISSLQPEDFATYYCQQDYSSPYTFGQGTKLEIK"
value_unit = "nM"
number = 0.87

[[record]]
binder = "anti-human CD147 activatable antibody hu 3A11 Hc1/Lc1-217-3001 (antibody, also called hu 3A11-217-3001) VH: EVQLVESGGGLVQPGGSLRLSCAASGFTFSNYWMDWVRQAPGKGLEWVGEIRLKSYNYATHYAASVKGRFTISRDDSKNSVYLQMNSLKTEDTAVYYCTAAGTDYWGQGTLVTVSS VL: QSLFCSGFRCDQYASGGGSSGGSAVGLLAPPGGLSGRSDNHGGSDIQMTQSPSSLSASVGDRVTITCRASQSVRTDVGWYQQKPGKAPKLLIYYSSNRYTGVPSRFSGSGSGTDFTLTISSLQPEDFATYYCQQDYSSPYTFGQGTKLEIK"
value_unit = "nM"
number = 1.61

[[record]]
binder = "anti-human CD147 activatable antibody hu 3A11 Hc1/Lc1-428-3001 (antibody, also called hu 3A11-428-3001) VH: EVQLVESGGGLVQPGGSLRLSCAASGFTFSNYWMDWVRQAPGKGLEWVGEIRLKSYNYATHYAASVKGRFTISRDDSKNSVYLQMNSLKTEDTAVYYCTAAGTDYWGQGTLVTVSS VL: WHGPCHYTKCDDHTMGGGSSGGSAVGLLAPPGGLSGRSDNHGGSDIQMTQSPSSLSASVGDRVTITCRASQSVRTDVGWYQQKPGKAPKLLIYYSSNRYTGVPSRFSGSGSGTDFTLTISSLQPEDFATYYCQQDYSSPYTFGQGTKLEIK"
value_unit = "nM"
number = 7.63

[[record]]
binder = "anti-human CD147 activatable antibody hu 3A11 Hc1/Lc1-221-3001 (antibody, also called hu 3A11-221-3001) VH: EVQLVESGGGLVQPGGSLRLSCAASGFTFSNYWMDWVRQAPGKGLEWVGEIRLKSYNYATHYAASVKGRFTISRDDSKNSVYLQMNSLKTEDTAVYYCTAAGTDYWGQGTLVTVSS VL: DHGPCHYVSCTTINHGGGSSGGSAVGLLAPPGGLSGRSDNHGGSDIQMTQSPSSLSASVGDRVTITCRASQSVRTDVGWYQQKPGKAPKLLIYYSSNRYTGVPSRFSGSGSGTDFTLTISSLQPEDFATYYCQQDYSSPYTFGQGTKLEIK"
value_unit = "nM"
number = 2.5

[[record]]
binder = "anti-human CD147 activatable antibody hu 3A11 Hc1/Lc1-414-3001 (antibody, also called hu 3A11-414-3001) VH: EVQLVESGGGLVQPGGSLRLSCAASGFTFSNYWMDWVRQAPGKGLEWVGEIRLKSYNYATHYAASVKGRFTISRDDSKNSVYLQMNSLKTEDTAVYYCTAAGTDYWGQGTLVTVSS VL: THGPCHFKPNCSYPTGGGSSGGSAVGLLAPPGGLSGRSDNHGGSDIQMTQSPSSLSASVGDRVTITCRASQSVRTDVGWYQQKPGKAPKLLIYYSSNRYTGVPSRFSGSGSGTDFTLTISSLQPEDFATYYCQQDYSSPYTFGQGTKLEIK"
value_unit = "nM"
number = 16

[[record]]
binder = "anti-human CD147 activatable antibody hu 3A11 Hc1/Lc1-216-3001 (antibody, also called hu 3A11-216-3001) VH: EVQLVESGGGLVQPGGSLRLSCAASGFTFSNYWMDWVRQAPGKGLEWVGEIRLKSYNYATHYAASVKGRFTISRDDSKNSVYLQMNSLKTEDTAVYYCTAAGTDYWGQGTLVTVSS VL: HGPCHYNFNSGCAQFGGGSSGGSAVGLLAPPGGLSGRSDNHGGSDIQMTQSPSSLSASVGDRVTITCRASQSVRTDVGWYQQKPGKAPKLLIYYSSNRYTGVPSRFSGSGSGTDFTLTISSLQPEDFATYYCQQDYSSPYTFGQGTKLEIK"
value_unit = "nM"
number = 0.89

[[record]]
binder = "anti-human CD147 activatable antibody hu 3A11 Hc1/Lc1-419-3001 (antibody, also called hu 3A11-419-3001) VH: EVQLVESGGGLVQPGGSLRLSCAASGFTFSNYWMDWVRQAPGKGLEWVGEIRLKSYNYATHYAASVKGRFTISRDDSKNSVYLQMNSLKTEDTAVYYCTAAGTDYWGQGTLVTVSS VL: LHGPCHYDLKCKNNTGGGSSGGSAVGLLAPPGGLSGRSDNHGGSDIQMTQSPSSLSASVGDRVTITCRASQSVRTDVGWYQQKPGKAPKLLIYYSSNRYTGVPSRFSGSGSGTDFTLTISSLQPEDFATYYCQQDYSSPYTFGQGTKLEIK"
value_unit = "nM"
number = 9.43

[[record]]
binder = "anti-human CD147 activatable antibody hu 3A11 Hc1/Lc1-443-3001 (antibody, also called hu 3A11-443-3001) VH: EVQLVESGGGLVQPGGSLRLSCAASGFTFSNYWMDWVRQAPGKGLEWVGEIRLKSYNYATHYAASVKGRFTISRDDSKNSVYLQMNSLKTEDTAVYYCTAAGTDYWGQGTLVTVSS VL: AHGPCHYNTECNSNKGGGSSGGSAVGLLAPPGGLSGRSDNHGGSDIQMTQSPSSLSASVGDRVTITCRASQSVRTDVGWYQQKPGKAPKLLIYYSSNRYTGVPSRFSGSGSGTDFTLTISSLQPEDFATYYCQQDYSSPYTFGQGTKLEIK"
value_unit = "nM"
number = 7.4

[[record]]
binder = "anti-human CD147 activatable antibody hu 3A11 Hc1/Lc1-215-3001 (antibody, also called hu 3A11-215-3001) VH: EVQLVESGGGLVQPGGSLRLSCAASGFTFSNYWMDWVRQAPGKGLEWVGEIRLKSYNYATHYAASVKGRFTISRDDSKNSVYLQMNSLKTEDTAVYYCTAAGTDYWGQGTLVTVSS VL: RYQSCHSYWCTEGNHGGGSSGGSAVGLLAPPGGLSGRSDNHGGSDIQMTQSPSSLSASVGDRVTITCRASQSVRTDVGWYQQKPGKAPKLLIYYSSNRYTGVPSRFSGSGSGTDFTLTISSLQPEDFATYYCQQDYSSPYTFGQGTKLEIK"
value_unit = "nM"
number = 5.53

